Hey, just so you know, these numbers are from patent US9233961B2.

System: Leishmania donovani axenic amastigote parasites
Test: Leishmania donovani axenic amastigote proliferation assay
Type: cell-based
Conditions: axenic amastigotes in vitro, read-out: L. donovani amastigotes EC50
Hi there, I'd appreciate the recorded EC50 for every entry that follows.
Please reply with the bare figure in nM and do not write the unit itself.

Which EC50 value is on record for `Cc1n[nH]cc1-c1cnc2nc(-c3cc(NC(=O)Nc4ccc(C(F)(F)F)cc4)ccc3F)oc2c1` ?
11700

Sample `O=C(Nc1ccc(F)c(-c2nc3ncc(-c4ccccc4)cc3o2)c1)N1CCCC1` — what was its EC50?
400

Recorded EC50 of `O=C(Nc1ccc(Cl)c(-c2nc3ncc(-c4ccc(-n5cccn5)cc4)cc3[nH]2)c1)c1ccco1` , please.
3200

Given the entry `CS(=O)(=O)c1ccc(-c2cnc3nc(-c4cc(NC(=O)N5CCCC5)ccc4Cl)[nH]c3c2)cc1` , report its measured EC50.
1590

Reported EC50, compound `O=C(Nc1ccc(Cl)c(-c2nc3ncc(-c4ccc(F)cc4)cc3[nH]2)c1)N1CCCC1` : ____
380

Look up EC50 for this compound: `O=C(Nc1ccc(Cl)c(-c2nc3ncc(-c4cccc(OCCN5CCOCC5)c4)cc3[nH]2)c1)N1CCCC1`
910

----------
System: Leishmania donovani axenic amastigote parasites
Assay: Leishmania donovani axenic amastigote proliferation assay
Type: cell-based
Details: axenic amastigotes in vitro, read-out: L. donovani amastigotes EC50
Procedure: Leishmania Donovani Axenic Amastigote Proliferation Assay Leishmania donovani axenic amastigote parasites are grown at 37° C., 5% CO2 in media made of RPMI 1640, 4 mM L-glutamine, 20% heat inactivated FBS, 100 units/ml of penicillin and 100 μg/ml of streptomycin, 23 μM Folic Acid, 100 μM Adenosine, 22 mM D-glucose, 25 mM MES. The pH of media is adjusted to 5.5 at 37° C. using HCl. […] The luminescence signal of each well is measured using the Envision reader (Perkin Elmer). […]
pEC50: −log10 of the molar value.
Label rule, in plain words: pEC50 of 6 and up is t, under 6 is f.

Reported pEC50 reaches at least 6 for `COCCOC(=O)Nc1ccc(Cl)c(-c2nc3ncc(Br)cc3[nH]2)c1` ?
f

Has `Cc1cnc2nc(-c3cc(NC(=O)c4nc(C)oc4C)ccc3Cl)[nH]c2c1` a recorded pEC50 greater than or equal to 6?
f

Is the recorded value of pEC50 equal to or greater than 6 for this molecule? `Cc1ccc(C(=O)Nc2ccc(Cl)c(-c3nc4ncc(C(F)(F)F)cc4[nH]3)c2)o1`
t

Determine whether measured pEC50 meets or exceeds 6 for `CC(C)OC(=O)Nc1ccc(-c2cnc3nc(-c4cc(NC(=O)Nc5ccc(C(F)(F)F)cc5)ccc4F)oc3c2)cc1`
f

Given the entry `Cc1cnc2nc(-c3cc(NC(=O)c4ccc(OCCN(C)C)cc4)ccc3F)[nH]c2c1` , answer whether its pEC50 meets or surpasses 6.
f

Hi, just wondering whether `Cc1cnc2nc(-c3cc(Nc4ccc(-n5cncn5)nc4)ccc3Cl)[nH]c2c1` shows pEC50 of 6 or higher.
f

Does pEC50 meet or surpass 6 for `NC(=O)c1ccc(-c2cnc3nc(-c4cc(NC(=O)c5ccco5)ccc4Cl)[nH]c3c2)cc1` ?
t

Reported pEC50 at or above 6? `CN1CCN(CCOc2ccc(-c3cnc4nc(-c5cc(NC(=O)N6CCCC6)ccc5F)[nH]c4c3)cc2)CC1`
f

Would you say `O=C(Nc1ccc(C(F)(F)F)cc1)Nc1ccc(F)c(-c2nc3ncc(-c4ccc(CN5CCOCC5)cc4)cc3o2)c1` shows pEC50 at minimum 6?
f

Could you please find out whether `O=C(Nc1ccc(Cl)c(-c2nc3ncc(-c4ccsc4)cc3[nH]2)c1)N1CCCC1` has pEC50 that meets 6 or exceeds it?
t

Is it the case that `Cc1cnc2nc(-c3cc(Nc4cccnc4N4CCOCC4)ccc3Cl)[nH]c2c1` has pEC50 reaching or exceeding 6?
f

Determine whether measured pEC50 meets or exceeds 6 for `O=C(Nc1ccc(Cl)c(-c2nc3ncc(-c4ccc(OCCn5cccn5)cc4)cc3[nH]2)c1)c1ccco1`
t

// inclusive: pEC50 at least 6? input: `CCN(C)C(=O)Nc1ccc(Cl)c(-c2nc3ncc(C)cc3[nH]2)c1`
f

Determine whether measured pEC50 meets or exceeds 6 for `Cc1cnc2nc(-c3cc(NC(=O)OC4CCCCC4)ccc3Cl)[nH]c2c1`
f

Identify whether the reported pEC50 of the following molecule is 6 or greater: `Cc1cnc2nc(-c3cc(NC(=O)c4ccno4)ccc3Cl)[nH]c2c1`
f

Check if pEC50 >= 6 (inclusive). Item: `Cc1cnc2nc(-c3cc(NC(=O)Cc4ccccc4)ccc3Cl)[nH]c2c1`
f

Is pEC50 for `COCCOc1ccc(-c2cnc3nc(-c4cc(NC(=O)c5ccco5)ccc4Cl)[nH]c3c2)c(F)n1` at or above 6?
t

Is it the case that Cc1cnc2nc(-c3cc(NC(=O)c4ccnc([S+](C)[O-])n4)ccc3Cl)[nH]c2c1 (centres unmarked) has pEC50 reaching or exceeding 6?
f

Check this molecule for pEC50 at or above 6: Cc1cnc2nc(-c3cc(NC(=O)C4CCCCN4)ccc3Cl)[nH]c2c1 (centres unmarked)
f

Record `Cc1ccc(C(=O)Nc2ccc(F)c(-c3nc4ncc(-c5ccsc5)cc4[nH]3)c2)o1` ; criterion: pEC50 no lower than 6. Met?
f

# check: pEC50 of `Cc1cnc2nc(-c3cc(NC(=O)c4cnc[nH]4)ccc3Cl)[nH]c2c1` is greater than or equal to 6
f

Confirm if pEC50 reported for the molecule `Cc1cnc2nc(-c3cc(NC(=O)c4ccc(F)s4)ccc3Cl)[nH]c2c1` is 6 or above.
f

Quick check: does `Cc1cnc2nc(-c3cc(NC(=O)OCC(C)C)ccc3Cl)[nH]c2c1` have pEC50 greater than or equal to 6?
f

Quick check, pEC50 >= 6? `Cc1cnc2nc(-c3cc(N4CCOCC4)ccc3Cl)[nH]c2c1`
f

// inclusive: pEC50 at least 6? input: O=C(Nc1ccc(F)c(-c2nc3ncc(-c4ccc(OCC5CO5)cc4)cc3[nH]2)c1)N1CCCC1 (centres unmarked)
f

Given the entry `CN(C)CCn1c(-c2cc(NC(=O)N3CCCC3)ccc2Cl)nc2ncc(Br)cc21` , answer whether its pEC50 meets or surpasses 6.
f

For this molecule, is measured pEC50 6 or higher? `Cc1ccc(Nc2ccc(Cl)c(-c3nc4ncc(C)cc4[nH]3)c2)nc1`
f

Given `CC(C)OC(=O)Nc1ccc(Cl)c(-c2nc3ncc(-c4ccc(NC(=O)CN)cc4)cc3[nH]2)c1` , state whether its pEC50 is at least 6.
f

Form field: pEC50 at least 6? Entry: `CCc1nnc(C(=O)Nc2ccc(F)c(-c3nc4ncc(Br)cc4o3)c2)o1`
f

Would you say `Cc1cnc2nc(-c3cc(NC(=O)N4CC(F)(F)C[C@@H]4c4cccc(F)c4)ccc3Cl)[nH]c2c1` shows pEC50 at minimum 6?
f

Identify whether the reported pEC50 of the following molecule is 6 or greater: `CN(C)Cc1ccc(-c2cnc3nc(-c4cc(NC(=O)c5ccco5)ccc4Cl)[nH]c3c2)cc1`
f

----------
Tested on: L. donovani HU3 strain in mouse peritoneal macrophages
Test: Assay for proliferation of Leishmania parasites in mouse peritoneal macrophages
Format: cell-based, Leishmania donovani
Conditions: Leishmania donovani, Peritoneal macrophage, read-out: L. donavani Macrophage EC50
Exercise: for every item that follows, state its recorded EC50.
Give the value in µM but do not write µM after it.

Notebook entry, L. donovani HU3 strain in mouse peritoneal macrophages assay: EC50 of O=C1NC(=O)C(c2ccc(-c3cnc4nc(-c5cc(NC(=O)c6ccco6)ccc5Cl)[nH]c4c3)cc2)N1 (stereo not shown) [Compound 42] = ?
4

Any idea what EC50 came out for Cc1cnc2nc(-c3cc(NC(=O)c4ccc(C(F)(F)F)cn4)ccc3Cl)[nH]c2c1 [Compound 115] on L. donovani HU3 strain in mouse peritoneal macrophages?
25.3

Provide the documented EC50 with L. donovani HU3 strain in mouse peritoneal macrophages as the system for Nc1ccc(-c2cnc3nc(-c4cc(NC(=O)c5ccco5)ccc4Cl)[nH]c3c2)cc1 [Compound 12]
0.4

Find EC50 (L. donovani HU3 strain in mouse peritoneal macrophages) for the entry O=C(Nc1ccc(Cl)c(-c2nc3ncc(Cl)cc3[nH]2)c1)c1ccco1 [Compound 2]
4

So what EC50 did O=C(Nc1ccc(F)c(-c2nc3ncc(-c4ccc(OCCN5CCOCC5)cc4)cc3[nH]2)c1)N1CCCC1 [Compound 295] get with L. donovani HU3 strain in mouse peritoneal macrophages?
1.27

Form field: EC50 recorded for COc1ccc(CC(=O)Nc2ccc(Cl)c(-c3nc4ncc(C)cc4[nH]3)c2)cc1 [Compound 156] with L. donovani HU3 strain in mouse peritoneal macrophages (enter value)
27.2

Provide the documented EC50 with L. donovani HU3 strain in mouse peritoneal macrophages as the system for CC(C)OC(=O)Nc1ccccc1-c1cnc2nc(-c3cc(NC(=O)c4ccco4)ccc3Cl)[nH]c2c1 [Compound 37]
0.55

Could you share what EC50 was measured for O=C(Nc1ccc(Cl)c(-c2nc3ncc(-c4ccc(N5CCCC5)cc4)cc3[nH]2)c1)c1ccco1 [Compound 68] , tested on L. donovani HU3 strain in mouse peritoneal macrophages?
4.9

For the record Cc1cc(COc2ccc(-c3cnc4nc(-c5cc(NC(=O)c6ccco6)ccc5Cl)[nH]c4c3)cc2)no1 [Compound 44] , what value of EC50 is listed for L. donovani HU3 strain in mouse peritoneal macrophages?
0.82

API: value(readout= EC50, system= L. donovani HU3 strain in mouse peritoneal macrophages, query= COc1cc(-c2cnc3nc(-c4cc(NC(=O)c5ccco5)ccc4Cl)[nH]c3c2)ccc1NC(=O)OC(C)(C)C [Compound 34] )
1.79
